Target: Mu-type opioid receptor (Homo sapiens) (UniProt P35372)
Sequence (P35372 whole entry): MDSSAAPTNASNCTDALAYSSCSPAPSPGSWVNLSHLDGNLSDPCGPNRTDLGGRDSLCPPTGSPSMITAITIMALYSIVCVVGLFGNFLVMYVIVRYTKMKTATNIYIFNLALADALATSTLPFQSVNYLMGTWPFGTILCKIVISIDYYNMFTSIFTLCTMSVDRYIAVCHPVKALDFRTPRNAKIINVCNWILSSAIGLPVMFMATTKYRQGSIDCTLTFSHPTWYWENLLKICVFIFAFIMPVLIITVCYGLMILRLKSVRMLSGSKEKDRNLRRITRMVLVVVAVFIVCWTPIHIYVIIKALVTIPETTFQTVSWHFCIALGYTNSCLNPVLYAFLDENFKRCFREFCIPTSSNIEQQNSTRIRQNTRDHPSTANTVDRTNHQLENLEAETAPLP
Test: Irreversible antagonist activity at mu receptor by determining by ileal response to morphine after 30 min incubation at 20 nM
Type: functional
Values of Ratio greater than or equal to 3 map to condition met; values below map to condition not met.

[[record]]
compound = "O=C1C=CC(=O)N1[C@@H]1CCC2(O)C3Cc4ccc(O)c5c4C2(CCN3CC2CC2)C1O5 (stereo partly drawn)"
label = "condition not met"

[[record]]
compound = "C=C(Cl)C(=O)N[C@@H]1CCC2(O)C3Cc4ccc(O)c5c4C2(CCN3CC2CC2)C1O5 (stereo partly drawn)"
label = "condition met"

[[record]]
compound = "O=C(N[C@@H]1CC[C@@]2(O)[C@H]3Cc4ccc(O)c5c4[C@@]2(CCN3CC2CC2)[C@H]1O5)c1ccccc1"
label = "condition not met"

[[record]]
compound = "COC(=O)/C=C/C(=O)N[C@@H]1CC[C@@]2(O)[C@H]3Cc4ccc(O)c5c4[C@@]2(CCN3CC2CC2)[C@H]1O5"
label = "condition met"

[[record]]
compound = "C#CC(=O)N[C@@H]1CCC2(O)C3Cc4ccc(O)c5c4C2(CCN3CC2CC2)C1O5 (stereo partly drawn)"
label = "condition not met"

[[record]]
compound = "O=C(CN1C(=O)C=CC1=O)N[C@@H]1CCC2(O)C3Cc4ccc(O)c5c4C2(CCN3CC2CC2)C1O5 (stereo partly drawn)"
label = "condition not met"

[[record]]
compound = "O=C(CBr)N[C@@H]1CCC2(O)C3Cc4ccc(O)c5c4C2(CCN3CC2CC2)C1O5 (stereo partly drawn)"
label = "condition met"

[[record]]
compound = "CC(=O)/C=C/C(=O)N[C@@H]1CCC2(O)C3Cc4ccc(O)c5c4C2(CCN3CC2CC2)C1O5 (stereo partly drawn)"
label = "condition met"


* * *

Molecular target: Kappa-type opioid receptor (Homo sapiens)
Assay: Irreversible antagonist activity at kappa receptor as ileal response to ethylketazocine after 30 min incubation at 20 nM
Assay type: functional
reported-endpoint: Ratio

[[record]]
compound = "C=C(Cl)C(=O)N[C@@H]1CCC2(O)C3Cc4ccc(O)c5c4C2(CCN3CC2CC2)C1O5 (stereo partly specified)"
reported_endpoint = "Ratio"
observed = 0.93

[[record]]
compound = "O=C(CN1C(=O)C=CC1=O)N[C@@H]1CCC2(O)C3Cc4ccc(O)c5c4C2(CCN3CC2CC2)C1O5 (stereo partly specified)"
reported_endpoint = "Ratio"
observed = 0.71

[[record]]
compound = "CC(=O)/C=C/C(=O)N[C@@H]1CCC2(O)C3Cc4ccc(O)c5c4C2(CCN3CC2CC2)C1O5 (stereo partly specified)"
reported_endpoint = "Ratio"
observed = 0.9

[[record]]
compound = "O=C(N[C@@H]1CC[C@@]2(O)[C@H]3Cc4ccc(O)c5c4[C@@]2(CCN3CC2CC2)[C@H]1O5)c1ccccc1"
reported_endpoint = "Ratio"
observed = 0.91

[[record]]
compound = "O=C(CBr)N[C@@H]1CCC2(O)C3Cc4ccc(O)c5c4C2(CCN3CC2CC2)C1O5 (stereo partly specified)"
reported_endpoint = "Ratio"
observed = 0.73

[[record]]
compound = "O=C(N[C@@H]1CCC2(O)C3Cc4ccc(O)c5c4C2(CCN3CC2CC2)C1O5)C(=O)c1ccccc1 (stereo partly specified)"
reported_endpoint = "Ratio"
observed = 0.93

[[record]]
compound = "COC(=O)/C=C/C(=O)N[C@@H]1CC[C@@]2(O)[C@H]3Cc4ccc(O)c5c4[C@@]2(CCN3CC2CC2)[C@H]1O5"
reported_endpoint = "Ratio"
observed = 1

[[record]]
compound = "C=CCN1CCC23c4c5ccc(O)c4OC2[C@H](NC(=O)/C=C/C(=O)OC)CCC3(O)C1C5 (stereo partly specified)"
reported_endpoint = "Ratio"
observed = 1

[[record]]
compound = "O=C(CSSc1ccccc1[N+](=O)[O-])N[C@@H]1CCC2(O)C3Cc4ccc(O)c5c4C2(CCN3CC2CC2)C1O5 (stereo partly specified)"
reported_endpoint = "Ratio"
observed = 0.5

[[record]]
compound = "O=C1C=CC(=O)N1[C@@H]1CCC2(O)C3Cc4ccc(O)c5c4C2(CCN3CC2CC2)C1O5 (stereo partly specified)"
reported_endpoint = "Ratio"
observed = 0.94

[[record]]
compound = "C#CC(=O)N[C@@H]1CCC2(O)C3Cc4ccc(O)c5c4C2(CCN3CC2CC2)C1O5 (stereo partly specified)"
reported_endpoint = "Ratio"
observed = 0.84


* * *

Molecular target: Mu-type opioid receptor (Homo sapiens)
Assay: Compound was tested for irreversible antagonist activity at mu receptor by determining by MVD response to morphine after 30 min incubation at 200 nM
Format: functional
Property: Ratio; scope: individual compounds
reported-endpoint: Ratio

[[record]]
compound = "C=CCN1CCC23c4c5ccc(O)c4OC2[C@H](NC(=O)/C=C/C(=O)OC)CCC3(O)C1C5 (some centres undefined)"
reported_endpoint = "Ratio"
observed = 4

[[record]]
compound = "O=C(N[C@@H]1CCC2(O)C3Cc4ccc(O)c5c4C2(CCN3CC2CC2)C1O5)C(=O)c1ccccc1 (some centres undefined)"
reported_endpoint = "Ratio"
observed = 6.5

[[record]]
compound = "O=C(N[C@@H]1CC[C@@]2(O)[C@H]3Cc4ccc(O)c5c4[C@@]2(CCN3CC2CC2)[C@H]1O5)c1ccccc1"
reported_endpoint = "Ratio"
observed = 1.9

[[record]]
compound = "C=C(Cl)C(=O)N[C@@H]1CCC2(O)C3Cc4ccc(O)c5c4C2(CCN3CC2CC2)C1O5 (some centres undefined)"
reported_endpoint = "Ratio"
observed = 6

[[record]]
compound = "O=C(CSSc1ccccc1[N+](=O)[O-])N[C@@H]1CCC2(O)C3Cc4ccc(O)c5c4C2(CCN3CC2CC2)C1O5 (some centres undefined)"
reported_endpoint = "Ratio"
observed = 1.8

[[record]]
compound = "COC(=O)/C=C/C(=O)N[C@@H]1CC[C@@]2(O)[C@H]3Cc4ccc(O)c5c4[C@@]2(CCN3CC2CC2)[C@H]1O5"
reported_endpoint = "Ratio"
observed = 10.6

[[record]]
compound = "O=C(CBr)N[C@@H]1CCC2(O)C3Cc4ccc(O)c5c4C2(CCN3CC2CC2)C1O5 (some centres undefined)"
reported_endpoint = "Ratio"
observed = 1.4

[[record]]
compound = "CC(=O)/C=C/C(=O)N[C@@H]1CCC2(O)C3Cc4ccc(O)c5c4C2(CCN3CC2CC2)C1O5 (some centres undefined)"
reported_endpoint = "Ratio"
observed = 30

[[record]]
compound = "O=C1C=CC(=O)N1[C@@H]1CCC2(O)C3Cc4ccc(O)c5c4C2(CCN3CC2CC2)C1O5 (some centres undefined)"
reported_endpoint = "Ratio"
observed = 1.1


* * *

List of Ratio values.
Molecular target: Mu-type opioid receptor (Homo sapiens)
Assay: Irreversible antagonist activity at mu receptor by determining by ileal response to morphine after 30 min incubation at 20 nM
Format: functional
reported-endpoint: Ratio

[[record]]
molecule = "C=CCN1CCC23c4c5ccc(O)c4OC2[C@H](NC(=O)/C=C/C(=O)OC)CCC3(O)C1C5 (stereo partly drawn)"
observed = 2.2

[[record]]
molecule = "O=C(N[C@@H]1CCC2(O)C3Cc4ccc(O)c5c4C2(CCN3CC2CC2)C1O5)C(=O)c1ccccc1 (stereo partly drawn)"
observed = 1.48

[[record]]
molecule = "O=C(CSSc1ccccc1[N+](=O)[O-])N[C@@H]1CCC2(O)C3Cc4ccc(O)c5c4C2(CCN3CC2CC2)C1O5 (stereo partly drawn)"
observed = 1.3


* * *

Target: UniProt:P41145
Sequence (P41145 whole entry): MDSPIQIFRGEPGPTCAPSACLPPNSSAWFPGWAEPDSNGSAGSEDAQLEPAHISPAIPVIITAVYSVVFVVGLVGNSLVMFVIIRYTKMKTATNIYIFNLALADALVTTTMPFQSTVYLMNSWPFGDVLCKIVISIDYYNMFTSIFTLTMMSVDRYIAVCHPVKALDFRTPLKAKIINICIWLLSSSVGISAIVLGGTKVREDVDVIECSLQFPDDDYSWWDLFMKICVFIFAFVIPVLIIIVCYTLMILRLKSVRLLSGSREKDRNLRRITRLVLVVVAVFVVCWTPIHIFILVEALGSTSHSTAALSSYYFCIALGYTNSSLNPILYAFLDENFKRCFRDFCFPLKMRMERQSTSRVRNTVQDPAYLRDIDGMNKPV
Experiment: Compound was tested for irreversible antagonist activity at kappa receptor by determining by ileal response to ethylketazocine after 30 min incubation at 200 nM
Type: functional
reported-endpoint: Ratio

[[record]]
compound = "O=C(CBr)N[C@@H]1CCC2(O)C3Cc4ccc(O)c5c4C2(CCN3CC2CC2)C1O5 (stereo not given in full)"
system_name = "UniProt:P41145"
observed = 0.78

[[record]]
compound = "O=C1C=CC(=O)N1[C@@H]1CCC2(O)C3Cc4ccc(O)c5c4C2(CCN3CC2CC2)C1O5 (stereo not given in full)"
system_name = "UniProt:P41145"
observed = 1.4

[[record]]
compound = "O=C(CSSc1ccccc1[N+](=O)[O-])N[C@@H]1CCC2(O)C3Cc4ccc(O)c5c4C2(CCN3CC2CC2)C1O5 (stereo not given in full)"
system_name = "UniProt:P41145"
observed = 1.3

[[record]]
compound = "C=C(Cl)C(=O)N[C@@H]1CCC2(O)C3Cc4ccc(O)c5c4C2(CCN3CC2CC2)C1O5 (stereo not given in full)"
system_name = "UniProt:P41145"
observed = 0.88

[[record]]
compound = "O=C(CN1C(=O)C=CC1=O)N[C@@H]1CCC2(O)C3Cc4ccc(O)c5c4C2(CCN3CC2CC2)C1O5 (stereo not given in full)"
system_name = "UniProt:P41145"
observed = 0.92

